System: SF-268 CNS
Assay method text: NCI tumour cell line growth inhibition, 48 h; in the data active = GI50 below about 0.43 µM; inactive = the rest
Write down one outcome, taken from True = active, False = inactive

In: Hi team, can someone confirm the assay call for O=C1c2ccccc2-c2c1c1ccccc1c(=O)n2CCCNCCCCNCCCN1C(=O)c2ccccc2C2C(=O)c3ccccc3C21 (centres undefined) ?
Out: True

In: Hi team, can someone confirm the assay call for Cn1c(/C=C/[N+](=O)[O-])cc2ccccc21 ?
Out: False

In: Hi team, can someone confirm the assay call for COc1cc(/C=C2\C[C@H]3[C@@H]4CC=C5C[C@@H](O)CC[C@]5(C)[C@H]4CC[C@]3(C)[C@H]2O)ccc1OCCCn1ccnc1 ?
Out: False

In: Hi team, can someone confirm the assay call for COc1cc(C(=O)Nc2cc(OC)c3ccn(C)c3c2)cc2c1C[C@]1(C)CC[C@@H](O)C(C)(C)[C@H]1O2 ?
Out: False

Data credit: PubChem BioAssay (NCI)
